Biological target: Neurogenic locus notch homolog protein 2 (Homo sapiens) (UniProt Q04721)
Sequence (Q04721 whole entry, looked up): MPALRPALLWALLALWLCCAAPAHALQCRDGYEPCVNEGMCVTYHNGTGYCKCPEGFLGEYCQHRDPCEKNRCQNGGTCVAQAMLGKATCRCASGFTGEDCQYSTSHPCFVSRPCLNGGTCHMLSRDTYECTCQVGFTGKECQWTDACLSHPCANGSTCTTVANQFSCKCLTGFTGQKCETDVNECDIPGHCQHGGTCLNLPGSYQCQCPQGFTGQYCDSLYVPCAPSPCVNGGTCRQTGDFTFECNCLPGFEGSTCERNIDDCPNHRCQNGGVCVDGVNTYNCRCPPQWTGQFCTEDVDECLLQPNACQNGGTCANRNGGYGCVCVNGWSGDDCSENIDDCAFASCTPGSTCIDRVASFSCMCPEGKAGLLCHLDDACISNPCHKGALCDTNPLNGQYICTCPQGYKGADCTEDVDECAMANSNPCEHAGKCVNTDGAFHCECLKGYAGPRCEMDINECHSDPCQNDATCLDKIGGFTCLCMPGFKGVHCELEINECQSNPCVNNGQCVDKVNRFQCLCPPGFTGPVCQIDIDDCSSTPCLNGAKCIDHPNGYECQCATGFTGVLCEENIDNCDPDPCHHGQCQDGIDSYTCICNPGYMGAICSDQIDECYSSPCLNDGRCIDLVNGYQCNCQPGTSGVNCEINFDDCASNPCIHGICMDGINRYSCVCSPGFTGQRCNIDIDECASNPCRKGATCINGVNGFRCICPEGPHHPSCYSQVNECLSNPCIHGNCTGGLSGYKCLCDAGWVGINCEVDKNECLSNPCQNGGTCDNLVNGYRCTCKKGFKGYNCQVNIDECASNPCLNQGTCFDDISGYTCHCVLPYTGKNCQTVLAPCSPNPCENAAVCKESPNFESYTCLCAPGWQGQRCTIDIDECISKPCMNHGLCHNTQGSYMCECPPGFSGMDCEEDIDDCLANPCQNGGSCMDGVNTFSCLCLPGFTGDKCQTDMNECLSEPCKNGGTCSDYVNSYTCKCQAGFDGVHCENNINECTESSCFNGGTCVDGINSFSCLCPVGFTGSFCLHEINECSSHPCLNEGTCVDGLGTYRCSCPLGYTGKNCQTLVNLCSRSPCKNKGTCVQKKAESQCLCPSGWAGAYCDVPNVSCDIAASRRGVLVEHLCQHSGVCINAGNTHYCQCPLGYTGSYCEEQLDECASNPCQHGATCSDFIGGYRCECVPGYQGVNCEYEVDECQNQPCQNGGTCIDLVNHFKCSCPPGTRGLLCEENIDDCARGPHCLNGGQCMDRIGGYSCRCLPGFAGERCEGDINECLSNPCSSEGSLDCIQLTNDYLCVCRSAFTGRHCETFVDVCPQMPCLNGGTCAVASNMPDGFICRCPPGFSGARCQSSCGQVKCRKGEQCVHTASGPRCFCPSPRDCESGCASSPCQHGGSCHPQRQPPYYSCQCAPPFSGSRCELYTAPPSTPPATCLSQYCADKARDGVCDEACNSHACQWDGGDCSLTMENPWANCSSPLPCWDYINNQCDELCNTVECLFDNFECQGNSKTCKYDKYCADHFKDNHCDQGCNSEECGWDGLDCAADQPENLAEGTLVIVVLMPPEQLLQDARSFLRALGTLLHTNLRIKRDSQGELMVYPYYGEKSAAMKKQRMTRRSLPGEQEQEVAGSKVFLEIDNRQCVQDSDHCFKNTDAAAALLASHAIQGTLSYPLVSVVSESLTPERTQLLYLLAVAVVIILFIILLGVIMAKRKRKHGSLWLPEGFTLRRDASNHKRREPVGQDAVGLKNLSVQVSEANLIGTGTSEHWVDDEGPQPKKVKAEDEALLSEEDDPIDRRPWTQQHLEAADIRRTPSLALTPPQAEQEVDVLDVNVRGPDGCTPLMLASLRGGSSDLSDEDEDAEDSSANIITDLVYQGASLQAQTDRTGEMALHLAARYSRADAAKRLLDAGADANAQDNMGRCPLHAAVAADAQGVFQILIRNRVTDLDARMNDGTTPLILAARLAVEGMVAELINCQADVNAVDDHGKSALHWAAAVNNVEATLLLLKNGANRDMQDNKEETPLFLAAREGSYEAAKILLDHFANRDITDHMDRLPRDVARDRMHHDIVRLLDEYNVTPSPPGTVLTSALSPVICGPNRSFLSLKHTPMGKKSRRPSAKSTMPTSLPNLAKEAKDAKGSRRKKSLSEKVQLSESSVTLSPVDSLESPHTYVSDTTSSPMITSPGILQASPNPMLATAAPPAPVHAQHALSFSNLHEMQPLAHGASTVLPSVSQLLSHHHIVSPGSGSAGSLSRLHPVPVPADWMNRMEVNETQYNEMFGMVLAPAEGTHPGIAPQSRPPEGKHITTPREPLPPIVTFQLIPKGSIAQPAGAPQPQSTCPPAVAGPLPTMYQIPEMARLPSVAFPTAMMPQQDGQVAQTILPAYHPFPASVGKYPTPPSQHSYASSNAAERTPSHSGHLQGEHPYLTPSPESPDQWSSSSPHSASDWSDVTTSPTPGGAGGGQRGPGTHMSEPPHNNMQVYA
Test: small molecules binding Notch2 protein – biochemical, small-molecule microarray, 635 nm fluorescence, stem cell growth factors, primary screen (AID 1073)
Conditions: higher = more signal
Experimental endpoint: composite z-score
// return just the number, without any unit appended

[[record]]
compound = "NC(=O)NCC#Cc1ccc2c(c1)[C@]1(C(=O)N2)[C@H](c2ccc(OCCO)cc2)N2[C@H](c3ccccc3)[C@H](c3ccccc3)OC(=O)[C@H]2[C@@H]1C(=O)O"
tgt = "Neurogenic locus notch homolog protein 2 (Homo sapiens) (UniProt Q04721)"
experimental_endpoint = "composite z-score"
observed_result = -0.459


Req: Please look up its composite z-score: "O=C1C[C@@](C(=O)NCc2ccccc2)(c2ccc([N+](=O)[O-])cc2)[C@@H](c2ccc(CO)cc2)N1C1CCCCC1"
Resp: 0.324

Req: For the compound "CCOC(=O)C[C@H]1[C@H](OC(=O)c2ccccc2-c2ccccc2)[C@@H](NC(=O)c2ccc3ccccc3c2)c2cc(OCCCO)ccc2N1C(=O)Cc1ccc(OC)cc1" , what composite z-score is on record?
Resp: -0.105

Req: May I ask what composite z-score has been recorded for O=C1C2C=CC(C(O)c3ccc([N+](=O)[O-])cc3)N(Nc3ccccc3F)C2C(=O)N1c1ccccc1 (configuration not stated) ?
Resp: 1.12

Req: # query: composite z-score of entry "COCCCNC(=O)[C@@]1(CCC(=O)OC(C)(C)C)COC(c2ccc(OCCCO)cc2)=N1"
Resp: 0.844

Req: Fill blank: measured composite z-score of the compound "O=C(NC1CC1)[C@@H]1c2ccccc2C(=O)N(Cc2ccc(OC(F)(F)F)cc2)[C@H]1c1ccc(CO)cc1" is ____.
Resp: 0.354

Req: What value of measured composite z-score is listed for "C=C(CCCC)/C(=C/C[C@H](OC(C)=O)c1cccc(OCCO)c1)c1cnc2ccccc2c1" ?
Resp: 0.16
